test-summary: DRUGMATRIX: Interleukin IL-1 radioligand binding (ligand: [125I] interleukin 1beta)
Format: cell membranes, Membrane
assay-context: nih3t3; Not Active = under 50% inhibition at 10 µM
endpoint-label: Ki

1) CCc1oc2ccccc2c1C(=O)c1cc(Br)c(O)c(Br)c1 = Not Active
2) OCCN1CCN(CCCN2c3ccccc3Sc3ccc(Cl)cc32)CC1 = Not Active
3) COc1cc(N)nc2[nH]c(-c3ccc(F)cc3)c(-c3ccncc3)c12 = Not Active
4) N[C@@H](Cc1ccc(F)cc1)C(=O)O = Not Active
5) CCS(=O)(=O)CCn1c([N+](=O)[O-])cnc1C = Not Active
6) O=P1(N(CCCl)CCCl)NCCCO1 (centres undefined) [CYCLOPHOSPHAMIDE ANHYDROUS] = Not Active
7) COc1ccccc1OCC(O)CO (centres undefined) = Not Active
8) C=C(C)[C@H]1Cc2c(ccc3c2O[C@@H]2COc4cc(OC)c(OC)cc4[C@@H]2C3=O)O1 = Not Active

Please look at the following molecule next.
Query C[C@@H]1C[C@H]2[C@@H]3CCC4=CC(=O)C=C[C@]4(C)C3=CC[C@]2(C)[C@H]1C(=O)CN1CCN(c2cc(N3CCCC3)nc(N3CCCC3)n2)CC1 yields Ki of Not Active

Where do these numbers come from? They come from ChEMBL document CHEMBL1909046.
